The entries below are paired with their reported Relative activity, MtIOMT1.
- System: MtIOMT1
- assay.details: OMT assays with purified recombinant MtIOMT1 (relative activity with 14C-SAM)
- Assay type: biochemical, Medicago truncatula
- applied.conditions: 50 μM S-adenosyl methionine, 100 μM acceptor substrate; most converted substrate = 100%
Please answer using a numeric value trailed by its unit.

Example cases with answers are listed next.
>>> print(df.to_string())
                                   compound  reported_measurement
0  O=C1c2ccc(O)cc2OCC1c1ccc(O)cc1 (centres unmarked) [Dihydrodaidzein]                 15.6%
1  O=c1c(-c2ccc(O)c(O)c2)coc2cc(O)ccc12 [7,3′,4′-trihydroxyisoflavone]                 40.8%
2  O=c1cc(-c2ccc(O)cc2)oc2cc(O)ccc12 [7,4′-dihydroxyflavone]                    0%
3         O=c1oc2cc(O)ccc2c2oc3cc(O)ccc3c12                    0%
4  O=C1C[C@@H](c2ccc(O)cc2)Oc2cc(O)cc(O)c21                    0%
5  O=c1c(O)c(-c2cc(O)c(O)c(O)c2)oc2cc(O)cc(O)c12                    0%
6      O=c1c(-c2ccc(O)cc2)coc2cc(O)cc(O)c12                 49.2%

Exam item: Provide measured Relative activity, MtIOMT1 value, entry: `COc1cc2c(=O)c(-c3ccc(O)cc3)coc2cc1O`
Marked response: 100%
